// provenance: the OPERA property sets (Mansouri et al. 2018)

melting point listing for selected compounds.

compound	melting point / °C
COc1ccc(Cc2cnc(N)nc2N)cc1OC	233
O=C(O)c1ccc([N+](=O)[O-])cc1Cl	140
CC/C=C(\C)C(=O)O	24.4
O=C1C=C(Nc2ccccc2)C(=O)c2ccccc21	193
ClC1=C(Cl)C2(Cl)C3C(Cl)C=CC3C1(Cl)C2(Cl)Cl (stereo unspecified)	95.5
Nc1nc2ccccc2[nH]1	230
C[C@H](N[C@H](CCc1ccccc1)C(=O)O)C(=O)N1CCC[C@H]1C(=O)O	150
O=C([O-])c1ccccc1.[NH4+]	194
C=CCC(C)C	-154
COc1nn(CSP(=S)(OC)OC)c(=O)s1	39
Cn1cnc2c1c(=O)[nH]c(=O)n2C	357
Cc1cc(O)c(C(C)(C)C)cc1C(C)(C)C	62.1
Nc1ccc(C(=O)O)cc1	188
C#CCCCCC	-81
O=C(Cl)CCc1ccccc1	-2
CC1(C)CCC(C)(C)C1	-88.4
Nc1ccc(N)cc1	146
O=C(O)/C=C/c1ccccc1C(F)(F)F	206
CP(C)C	-85
ClCc1ccc(Cl)cc1Cl	-2.6
Oc1ccc(/N=N/c2ccccc2)cc1	155
OCCc1c[nH]c2ccccc12	59
Nc1c(Br)cccc1Br	87.5
Cc1c(Br)cc(Br)cc1Br	70
COC(C)OC	-113
O=C(c1ccccc1)c1ccc(Br)cc1	82.5
O=C1CCCCC1=O	40
NS(=O)(=O)c1cc2c(cc1C(F)(F)F)NCNS2(=O)=O	270
C/C(=N/Nc1nc(C)cc(C)n1)c1ccccc1C	176
C#CCC	-126
ON=C(C(=NO)c1ccccc1)c1ccccc1	240
NNc1ccccn1	46.6
CCCC(=O)O[C@H]1[C@H](C)O[C@@H](O[C@H]2[C@H](N(C)C)[C@@H](O)[C@H](O[C@H]3[C@@H](CC=O)C[C@@H](C)[C@@H](O)C=CC=CC[C@@H](C)OC(=O)C[C@@H](O)[C@@H]3OC)O[C@@H]2C)C[C@@]1(C)OC(=O)CC	116
CC(C)=CC(=O)NS(=O)(=O)c1ccc(N)cc1	184
CCCCBr	-112
O=C1C=CC(=O)c2c(Cl)cccc21	163
O=c1ccc2cc3ccoc3cc2o1	164
O=C1OC(C(O)CO)C(O)=C1O (stereo unspecified)	168
COc1ccccc1	-37.5
S=C(Nc1cccc2ccccc12)Nc1cccc2ccccc12	208
O=C1c2ccccc2C(=O)c2c1cccc2[N+](=O)[O-]	232
CON=O	-16
COc1c(OC)c2occc2c2oc(=O)ccc12	119
Cc1cccc2cc3ccccc3cc12	85.5
Cc1ccccc1B(O)O	166
CC(C)c1ccc(C(=O)O)cc1	118
O=C(O)CC(Br)C(=O)O (stereo unspecified)	161
CCC(N)C(O)c1ccccc1 (stereo unspecified)	79.5
CCCOC(=O)c1ccc(O)cc1	97
OCCC1CCCCN1 (stereo unspecified)	69
Nc1cc(Cl)c(O)c(Cl)c1	168
N#CC1(N=NC2(C#N)CCCCC2)CCCCC1	116
FC(F)(Cl)C(F)(F)Cl	-94
ClC(Cl)(Br)CBr	-26
Nc1cccc2ncccc12	110
CNC(=O)/C=C(\C)OP(=O)(OC)OC	55
CC(C)c1cc(C(C)C)c(C(C)C)cc1C(C)C	118
ClC(Cl)(Cl)I	-7.8
CC(=O)c1cccc(N)c1	98.5
Cc1ccc2cccc(C)c2c1	-13.9
CCCCCC(C)=O	-35
